- Tested on: cGAS activity in Reporter THP1 cell line
- protocol.summary: Cellular assay to measure cGAS activity: ISRE-Gaussia luciferase reporter THP1 cells transfected with ISD
- Type: cell-based
- condition.info: Homo sapiens, THP-1, Table 4, Gaussia luciferase
pIC50: −log10 of the molar value.
property: pIC50

Q) Given the entry O=C(O)CCOC[C@@H]1CCCN(c2cc(-n3ccnc3)c3ccc(Cl)c(Cl)c3n2)C1 , report its measured pIC50.
A) > 5.70

Q) Given the entry O=C1CN(c2cc(-n3ccnc3)c3ccc(Cl)c(Cl)c3n2)CCCN1 , report its measured pIC50.
A) 5.00 to 5.70

Q) Given the entry O=C(O)COC[C@@H]1CCCN(c2cc(-n3ccnc3)c3ccc(Cl)c(Cl)c3n2)C1 , report its measured pIC50.
A) > 5.70

Q) Given the entry O=C(O)CCOC[C@@H]1[C@H]2C[C@H]2CN1c1cc(-n2ccnc2)c2ccc(Cl)c(Cl)c2n1 , report its measured pIC50.
A) 5.00 to 5.70

----------
Assign pIC50 to each entry below.
- assayed.system: recombinant human cGAS (aa147-522) (Homo sapiens, UniProt Q8N884)
- Construct: recombinant human cGAS (aa147-522); His6-SUMO (cleaved yes); made in house; host or cells: E. coli BL21/pLys
- Sequence (Q8N884 147-522): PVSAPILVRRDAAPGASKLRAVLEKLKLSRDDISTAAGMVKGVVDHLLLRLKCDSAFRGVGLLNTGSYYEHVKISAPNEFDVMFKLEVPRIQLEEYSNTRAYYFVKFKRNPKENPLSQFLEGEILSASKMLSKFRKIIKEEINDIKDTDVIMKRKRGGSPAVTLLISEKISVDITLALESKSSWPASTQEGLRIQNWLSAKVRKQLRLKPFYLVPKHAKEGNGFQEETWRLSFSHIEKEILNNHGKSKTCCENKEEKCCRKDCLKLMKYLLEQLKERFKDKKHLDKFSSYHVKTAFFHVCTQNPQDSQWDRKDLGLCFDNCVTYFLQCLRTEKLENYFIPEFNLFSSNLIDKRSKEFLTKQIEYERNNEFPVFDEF
- protocol.summary: In vitro inhibition assay of cGAS activity (ATP consumption, KinaseGlo Max)
- Type: biochemical
- condition.info: Table 2, read-out: cGAS Inhibition Results IC50
pIC50: −log10 of the molar value.

Q) Given the entry O=C(CO)N1CCOC(CNc2cc(-c3cn[nH]c3)c3ccc(Cl)c(Cl)c3n2)C1 (centres unmarked) , report its measured pIC50.
A) > 5.70

Q) Given the entry CN(CCNS(=O)(=O)c1ccccc1)c1cc(-n2ccnc2)c2ccc(Cl)cc2n1 , report its measured pIC50.
A) < 4.52

Q) Given the entry Cc1cccc2nc(NCCS(N)(=O)=O)cc(-c3cn[nH]c3)c12 , report its measured pIC50.
A) < 4.52

Q) Given the entry O=C1CN(c2cc(-n3ccnc3)c3ccc(Cl)cc3n2)CCN1 , report its measured pIC50.
A) > 5.70

Q) Given the entry O=C(O)c1ccccc1-c1cc(-n2ccnc2)c2ccc(Cl)cc2n1 , report its measured pIC50.
A) < 4.52

----------
- assayed.system: recombinant human cGAS (aa147-522) (Homo sapiens)
- Construct: recombinant human cGAS (aa147-522); His6-SUMO (cleaved yes); made in house; host or cells: E. coli BL21/pLys
- protocol.summary: In vitro inhibition assay of cGAS activity (ATP consumption, KinaseGlo Max)
- Format: biochemical
- condition.info: Table 2, read-out: cGAS Inhibition Results IC50
property: IC50

Q) Given the entry Clc1ccc2c(-n3ccnc3)cc(N3CCNCC3)nc2c1 , report its measured IC50.
A) 2000 to 30000 nM

Q) Given the entry CN(CCCO[PH](=O)O)c1cc(-c2cn[nH]c2)c2ccc(Cl)c(Cl)c2n1 , report its measured IC50.
A) < 2000 nM

Q) Given the entry C[C@H](Nc1cc(-c2cn[nH]c2)c2ccc(Cl)c(Cl)c2n1)C(=O)O , report its measured IC50.
A) > 30000 nM

Q) Given the entry Clc1ccc2c(-n3ccnc3)cc(N3CCOCC3)nc2c1Cl , report its measured IC50.
A) 2000 to 30000 nM

Q) Given the entry Cc1cc(-c2ccn[nH]2)c2ccc(Cl)c(Cl)c2n1 , report its measured IC50.
A) > 30000 nM

Q) Given the entry O=C(O)CCS(=O)(=O)NC[C@@H]1CCCN1c1cc(-n2ccnc2)c2ccc(Cl)c(Cl)c2n1 , report its measured IC50.
A) < 2000 nM

Q) Given the entry Nc1cc(C(=O)O)cc(-c2cc(-n3ccnc3)c3ccc(Cl)cc3n2)c1 , report its measured IC50.
A) < 2000 nM

Q) Given the entry CCNC(=O)[C@@H]1CCCN1c1cc(-n2ccnc2)c2ccc(Cl)c(Cl)c2n1 , report its measured IC50.
A) 2000 to 30000 nM

Q) Given the entry NS(=O)(=O)CCNc1cc(-c2cn[nH]c2)c2cc(Cl)cc(Cl)c2n1 , report its measured IC50.
A) < 2000 nM

----------
- assayed.system: recombinant human cGAS (aa147-522) (Homo sapiens, UniProt Q8N884)
- Construct: recombinant human cGAS (aa147-522); His6-SUMO (cleaved yes); made in house; host or cells: E. coli BL21/pLys
- protocol.summary: In vitro inhibition assay of cGAS activity (ATP consumption, KinaseGlo Max)
- Format: biochemical
- condition.info: Table 3, read-out: cGAS Inhibition Results IC50
Assign IC50 to each entry below.

Q) Given the entry O=C(O)[C@@H]1SCCN1c1cc(-n2ccnc2)c2ccc(Cl)c(Cl)c2n1 , report its measured IC50.
A) < 2 µM

Q) Given the entry O=C(O)[C@H](O)[C@@H]1CCCN1c1cc(-n2ccnc2)c2ccc(Cl)c(Cl)c2n1 , report its measured IC50.
A) < 2 µM

Q) Given the entry Cc1cn(-c2cc(N3CCC[C@H]3COCCC(=O)O)nc3c(Cl)c(Cl)ccc23)cn1 , report its measured IC50.
A) > 30 µM

Q) Given the entry COC(=O)CCNC[C@@H]1CCCN1c1cc(-n2ccnc2)c2ccc(Cl)c(Cl)c2n1 , report its measured IC50.
A) > 30 µM

Q) Given the entry O=C(O)CCOC[C@@H]1C[C@H]2C[C@H]2N1c1cc(-n2ccnc2)c2ccc(Cl)c(Cl)c2n1 , report its measured IC50.
A) < 2 µM

Q) Given the entry O=C(OC(C(F)(F)F)C(F)(F)F)[C@@H]1[C@@H](O)CCN1c1cc(-n2ccnc2)c2ccc(Cl)c(Cl)c2n1 , report its measured IC50.
A) < 2 µM

Q) Given the entry O=C(O)C1CCCN(C(=O)[C@@H]2CCCN2c2cc(-n3ccnc3)c3ccc(Cl)c(Cl)c3n2)C1 (some centres unmarked) , report its measured IC50.
A) 2 to 30 µM

Q) Given the entry O=C(NC[C@@H]1CCCN1c1cc(-n2ccnc2)c2ccc(Cl)c(Cl)c2n1)c1cc(O)no1 , report its measured IC50.
A) < 2 µM

Q) Given the entry O=C(NO)[C@@H]1[C@@H](O)CCN1c1cc(-n2ccnc2)c2ccc(Cl)c(Cl)c2n1 , report its measured IC50.
A) < 2 µM

Q) Given the entry O=C(O)C1CC(OC[C@@H]2CCCN2c2cc(-n3ccnc3)c3ccc(Cl)c(Cl)c3n2)C1 (some centres unmarked) , report its measured IC50.
A) < 2 µM

Q) Given the entry COC(=O)COC[C@@H]1CN(c2cc(-c3cn[nH]c3)c3ccc(Cl)c(Cl)c3n2)CCO1 , report its measured IC50.
A) < 2 µM

Q) Given the entry O=C(NC12CC(C(=O)O)(C1)C2)[C@@H]1CCCN1c1cc(-n2ccnc2)c2ccc(Cl)c(Cl)c2n1 , report its measured IC50.
A) > 30 µM

Q) Given the entry CN(CCC(=O)NCCS(N)(=O)=O)c1cc(-n2ccnc2)c2ccc(Cl)c(Cl)c2n1 , report its measured IC50.
A) < 2 µM

Q) Given the entry Clc1ccc2c(-n3ccnc3)cc(N3CCCC3c3ncc[nH]3)nc2c1Cl (centres unmarked) , report its measured IC50.
A) 2 to 30 µM

Q) Given the entry OC1CC2CCC(C1)N2c1cc(-n2ccnc2)c2ccc(Cl)c(Cl)c2n1 (centres unmarked) [I-489] , report its measured IC50.
A) < 2 µM

Q) Given the entry O=C(O)CCOCC1COCCN(c2cc(-n3ccnc3)c3ccc(Cl)c(Cl)c3n2)C1 (centres unmarked) , report its measured IC50.
A) < 2 µM

Q) Given the entry CN(CCNS(=O)(=O)c1ccc(C(=O)O)cc1)c1cc(-n2ccnc2)c2ccc(Cl)c(Cl)c2n1 , report its measured IC50.
A) 2 to 30 µM

----------
- assayed.system: recombinant human cGAS (aa147-522) (Homo sapiens, UniProt Q8N884)
- Construct: recombinant human cGAS (aa147-522); His6-SUMO (cleaved yes); made in house; host or cells: E. coli BL21/pLys
- protocol.summary: In vitro inhibition assay of cGAS activity (ATP consumption, KinaseGlo Max)
- Type: biochemical
- condition.info: Table 3, read-out: cGAS Inhibition Results IC50
pIC50: −log10 of the molar value.
property: pIC50

Q) Missing value: pIC50, recombinant human cGAS (aa147-522) (Homo sapiens, UniProt Q8N884), entry O=C(O)CCOCCNc1cc(-n2ccnc2)c2ccc(Cl)c(Cl)c2n1 . Fill in?
A) > 5.70

Q) Missing value: pIC50, recombinant human cGAS (aa147-522) (Homo sapiens, UniProt Q8N884), entry O=C(O)CCOC(C(=O)O)[C@@H]1CCCN1c1cc(-n2ccnc2)c2ccc(Cl)c(Cl)c2n1 (stereo partly drawn) . Fill in?
A) 4.52 to 5.70

Q) Missing value: pIC50, recombinant human cGAS (aa147-522) (Homo sapiens, UniProt Q8N884), entry C[C@@H]1CN(c2cc(-n3ccnc3)c3ccc(Cl)c(Cl)c3n2)[C@H](C(=O)O)[C@H]1O . Fill in?
A) 4.52 to 5.70
